These measurements were taken from patent US20110230476A1.

# target-of-assay: PI3Kα (p110α/p85α) (Homo sapiens)
# Sequence (P42336 whole entry): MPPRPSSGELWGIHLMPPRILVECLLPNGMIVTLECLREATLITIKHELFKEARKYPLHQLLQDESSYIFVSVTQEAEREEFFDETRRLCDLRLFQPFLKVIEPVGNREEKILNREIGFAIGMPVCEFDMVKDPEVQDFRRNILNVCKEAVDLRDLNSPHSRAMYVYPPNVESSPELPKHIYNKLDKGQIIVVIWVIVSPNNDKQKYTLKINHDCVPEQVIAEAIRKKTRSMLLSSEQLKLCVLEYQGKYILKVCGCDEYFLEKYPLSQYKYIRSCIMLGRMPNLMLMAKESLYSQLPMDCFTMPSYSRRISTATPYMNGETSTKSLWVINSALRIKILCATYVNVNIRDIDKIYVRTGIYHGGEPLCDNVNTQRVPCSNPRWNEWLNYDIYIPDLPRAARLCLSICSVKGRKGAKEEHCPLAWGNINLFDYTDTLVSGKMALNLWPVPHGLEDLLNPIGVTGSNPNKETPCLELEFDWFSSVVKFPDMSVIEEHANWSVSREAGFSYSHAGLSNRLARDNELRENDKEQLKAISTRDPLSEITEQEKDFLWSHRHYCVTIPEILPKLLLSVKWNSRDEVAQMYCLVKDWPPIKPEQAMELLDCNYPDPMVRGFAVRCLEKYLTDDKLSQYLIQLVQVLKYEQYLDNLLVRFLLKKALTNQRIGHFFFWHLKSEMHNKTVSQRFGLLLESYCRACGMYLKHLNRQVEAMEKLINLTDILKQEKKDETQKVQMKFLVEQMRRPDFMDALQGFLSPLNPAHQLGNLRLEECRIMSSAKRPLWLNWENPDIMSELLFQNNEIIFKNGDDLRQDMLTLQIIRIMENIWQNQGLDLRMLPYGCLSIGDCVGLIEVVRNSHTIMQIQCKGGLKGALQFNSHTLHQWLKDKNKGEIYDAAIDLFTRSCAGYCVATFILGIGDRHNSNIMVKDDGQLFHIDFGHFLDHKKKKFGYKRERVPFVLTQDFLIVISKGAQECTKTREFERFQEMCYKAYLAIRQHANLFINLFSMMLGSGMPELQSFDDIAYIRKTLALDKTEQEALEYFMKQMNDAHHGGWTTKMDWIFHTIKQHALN
# Sequence (P27986 whole entry partner): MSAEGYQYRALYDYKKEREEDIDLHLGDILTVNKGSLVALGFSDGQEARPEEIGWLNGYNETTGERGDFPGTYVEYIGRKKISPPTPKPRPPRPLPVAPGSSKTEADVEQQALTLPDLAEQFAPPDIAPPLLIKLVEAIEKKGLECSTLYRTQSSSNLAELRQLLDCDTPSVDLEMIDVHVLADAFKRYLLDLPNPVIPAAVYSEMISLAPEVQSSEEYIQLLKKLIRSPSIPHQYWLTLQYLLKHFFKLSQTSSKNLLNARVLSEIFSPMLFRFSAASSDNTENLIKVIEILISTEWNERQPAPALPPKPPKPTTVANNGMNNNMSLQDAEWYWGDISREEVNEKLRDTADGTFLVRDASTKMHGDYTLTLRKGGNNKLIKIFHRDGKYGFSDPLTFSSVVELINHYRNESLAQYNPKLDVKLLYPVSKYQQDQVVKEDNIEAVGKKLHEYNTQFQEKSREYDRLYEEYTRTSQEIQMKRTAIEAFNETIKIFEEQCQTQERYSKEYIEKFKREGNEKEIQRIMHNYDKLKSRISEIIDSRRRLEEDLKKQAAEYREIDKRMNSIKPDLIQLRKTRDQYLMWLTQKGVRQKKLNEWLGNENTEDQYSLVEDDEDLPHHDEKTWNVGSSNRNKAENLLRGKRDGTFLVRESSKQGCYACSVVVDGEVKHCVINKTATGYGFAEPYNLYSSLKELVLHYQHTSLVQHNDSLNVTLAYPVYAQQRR
# experiment-notes: HTRF assay, potency against active PI3Kα
# setup-conditions: HTRF; [ATP]=50 μM, [di-C8-PIP2]=10 μM; 30 min pre-incubation; read-out: PI3Kα Inhibition
measured-endpoint: IC50

C=CC(=O)Nc1ccc(C(=O)N2CCC(n3nc(-c4ccc(OC)c(OC)c4)c4c(N)ncnc43)CC2)cc1: > 1000 nM

Q) Name the recorded IC50 for C=CC(=O)N(C)CC(=O)N1CCN(Cc2cc3nc(-c4cccc5[nH]ncc45)nc(N4CCOCC4)c3s2)CC1 .
A) > 1000 nM

Q) Name the recorded IC50 for C=CC(=O)N1CCc2ccc(-c3ccnc4ccc(/C=C5\SC(=O)NC5=O)cc34)cc2C1 .
A) 10 to 100 nM

Q) Name the recorded IC50 for C=CC(=O)NC1CCN(c2ccc(-c3cc4nc(-c5cccc(O)c5)nc(N5CCOCC5)c4s3)cc2)CC1 .
A) 10 to 100 nM
